Molecular target: Gal(b1-4)GlcNAc(b1-2)Man(a1-3)[GlcNAc(b1-2)Man(a1-6)]Man(b1-4)GlcNAc(b1-4)GlcNAc
Assay: glycan array binding signal (z-score within array); higher = stronger binding
Settings: glycan notation: IUPAC condensed, linker removed
Only a selection was taken, and the strongest signals are over-represented in it overall.
Measurement Label: glycan array binding signal (z-score)
Please reply with the value in numeric form only.

q: Give the reported value of glycan array binding signal (z-score) for this record: BSR4 (Toxoplasma gondii), Q95NL6 (protein) MVMMGSMQQRRGGLRSNARQLLAVCMSGVVFFSSGQAVADNLLEGLLHRTLQQQVEVTSRLTVAGSDAKCDFFTPATQDSPPVSGSLTLSKGRMTATFECSATQALSISTIPTNIEQNVCDPKKTTNGTVCQFGANGSAGTEVTLKDLLETDRIVNWKVNEQREESNKSQKWSLELHNEDLPLTDKAFVVGCQATSAARGTESGKTAACKLTVNVEARASSLAENNVVTCAYGKGSNPNPVEVEMSTEKNTLTINCGSDGSLQPTTYAEEYCVADSKDVNRCSTTRFVEIFPKFLKSWWVTETQKRTSATLTIPQTDLPEADQQFLVGCVPKKTAPEDPKKDKESGTETGAPTSCTVLVTVKAASSASHASPTVQILAAASSAAA
a: -0.349

q: Give the value of glycan array binding signal (z-score) reported for the following: RbmA (Vibrio cholerae), A0A2H4NFB8 (protein) MSNFKGSIMNKRHYYLASCLALLFSTASYAEVDCELQPVIEANLSLNQNQLASNGGYISSQLGIRNESCETVKFKYWLSIKGPEGIYFPAKAVVGVDTAQQESDALTDGRMLNVTRGFWVPEYMADGKYTVSLQVVAENGEVFKANQEFVKGGDLNSLPELNGLTIDIKNQFGINSVESTGGFVPFTIDLNNGREGEAKVEFWMTAVGPDGLIIPVHSREKWMIIAGNTFSKVRGINFDKSYPAGEYTINAQVVDIVSGERVEQLMTVVKK
a: -0.515

q: Using the record for RBMC1 (Vibrio cholerae) (protein) QQSQRVVTADNLMYLRSGFAIDAIGTTVNNLVGGPVQGTNGGVLRAPIALDQLQSVEVTSGLYNWGGYHIVAIKFTMKDGSSVLLGSTHYASNKKVETYTVPQGKRIKQINVWTGGWLVEGFQFVY , state its measured glycan array binding signal (z-score).
a: 1.72

Further cases:
q: Complete the entry with glycan array binding signal (z-score) for PfulAvr4 2 (Pseudocercospora fuligena) (protein) HHHHHHDYKDDDDKAKPIKPFACPPKDFTTTKCQGPVDCLYANPLSCLGYIQCVCDDDACSTATPYAKSCPTGLAWVEKLKRCDGIKKSACPKKMYEGS
a: -0.331
